Reference for the values: PubChem BioAssay AID1845203

system: G-401 tumor spheroids, viability % test/control; assay: Anticancer human tumor G-401 cell line growth inhibition; settings: second compound 30 pM; first compound 3.16 µM; stronger effect = lower value; spheroids with HUVEC and MSC;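 note: spheroids exposed to compound for 7 days; 100% = DMSO vehicle-treated spheroids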
viability, T/C less than 20% is Fulfilled; viability, T/C greater than or equal to 20% is Not fulfilled.

| Compound | Assay Target | Category Label |
| --- | --- | --- |
| Cc1cc(C)c(CNC(=O)c2cc(-c3ccc(CN4CCOCC4)cc3)cc3c2cnn3C2CCCC2)c(=O)[nH]1 + COc1cc2c(cc1O)CCNC21CSC2c3c(OC(C)=O)c(C)c4c(c3C(COC1=O)N1C(O)C3Cc5cc(C)c(OC)c(O)c5C(C21)N3C)OCO4 | G-401 tumor spheroids, viability % test/control | Not fulfilled |
| COc1cc(C)[nH]c(=O)c1CN1CCc2c(Cl)cc(C(OC)C3COC3)c(Cl)c2C1=O (stereo unspecified) + COc1cc2c(cc1O)CCNC21CSC2c3c(OC(C)=O)c(C)c4c(c3C(COC1=O)N1C(O)C3Cc5cc(C)c(OC)c(O)c5C(C21)N3C)OCO4 | G-401 tumor spheroids, viability % test/control | Not fulfilled |
| COc1ccc([C@@H](O)c2cc(-c3ncnc4cc(N5CCOCC5)ccc34)c(F)cc2Cl)nn1 + COc1cc2c(cc1O)CCNC21CSC2c3c(OC(C)=O)c(C)c4c(c3C(COC1=O)N1C(O)C3Cc5cc(C)c(OC)c(O)c5C(C21)N3C)OCO4 | G-401 tumor spheroids, viability % test/control | Fulfilled |
| CC1COCCN1c1cc(-c2ccnn2C)c2ccnc(-c3ccn[nH]3)c2n1 (stereo unspecified) + COc1cc2c(cc1O)CCNC21CSC2c3c(OC(C)=O)c(C)c4c(c3C(COC1=O)N1C(O)C3Cc5cc(C)c(OC)c(O)c5C(C21)N3C)OCO4 | G-401 tumor spheroids, viability % test/control | Fulfilled |
| CC(C)n1c(=O)n(C)c2cnc3cc(F)c(-c4ccc(OCCCN5CCCCC5)nc4)cc3c21 + COc1cc2c(cc1O)CCNC21CSC2c3c(OC(C)=O)c(C)c4c(c3C(COC1=O)N1C(O)C3Cc5cc(C)c(OC)c(O)c5C(C21)N3C)OCO4 | G-401 tumor spheroids, viability % test/control | Not fulfilled |
| [2H]c1nc(C)nc([2H])c1-c1cc(NC[C@@H](C)c2cccc3c(C(=O)NC)ccnc23)ncn1 + COc1cc2c(cc1O)CCNC21CSC2c3c(OC(C)=O)c(C)c4c(c3C(COC1=O)N1C(O)C3Cc5cc(C)c(OC)c(O)c5C(C21)N3C)OCO4 | G-401 tumor spheroids, viability % test/control | Not fulfilled |

----------
Consider the following compounds and their measured viability, T/C readings.
Tested on: G-401 tumor spheroids, viability % test/control
Assay: Anticancer human tumor G-401 cell line growth inhibition;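 note: spheroids exposed to compound for 7 days; 100% = DMSO vehicle-treated spheroids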
Settings: second compound 94.9 pM; first compound 1 µM; stronger effect = lower value; spheroids with HUVEC and MSC
Procedure: Multicellular complex tumor spheroid response to DNA repair inhibitors in combination with DNA-damaging drugs This study explores the anticancer activities of DNA-damaging drugs and inhibitors of DNA damage repair, both as single agents and in combinations. […] Twenty-six patient-derived or established malignant cell lines were evaluated representing sarcoma, melanoma, small cell lung cancer (SCLC), non-small cell lung cancer (NSCLC), as well as bladder, ovarian and pancreatic cancers. […]

| Compound | Output Unit | viability, T/C |
| --- | --- | --- |
| COc1cc(C)[nH]c(=O)c1CN1CCc2c(Cl)cc(C(OC)C3COC3)c(Cl)c2C1=O (centres undefined) + COc1cc2c(cc1O)CCNC21CSC2c3c(OC(C)=O)c(C)c4c(c3C(COC1=O)N1C(O)C3Cc5cc(C)c(OC)c(O)c5C(C21)N3C)OCO4 | % | 27.3 |
| Cc1cc(C)c(CNC(=O)c2cc(-c3ccc(CN4CCOCC4)cc3)cc3c2cnn3C2CCCC2)c(=O)[nH]1 + COc1cc2c(cc1O)CCNC21CSC2c3c(OC(C)=O)c(C)c4c(c3C(COC1=O)N1C(O)C3Cc5cc(C)c(OC)c(O)c5C(C21)N3C)OCO4 | % | 107 |
| CC1COCCN1c1cc(-c2ccnn2C)c2ccnc(-c3ccn[nH]3)c2n1 (centres undefined) + COc1cc2c(cc1O)CCNC21CSC2c3c(OC(C)=O)c(C)c4c(c3C(COC1=O)N1C(O)C3Cc5cc(C)c(OC)c(O)c5C(C21)N3C)OCO4 | % | 11.2 |
| CC(C)n1c(=O)n(C)c2cnc3cc(F)c(-c4ccc(OCCCN5CCCCC5)nc4)cc3c21 + COc1cc2c(cc1O)CCNC21CSC2c3c(OC(C)=O)c(C)c4c(c3C(COC1=O)N1C(O)C3Cc5cc(C)c(OC)c(O)c5C(C21)N3C)OCO4 | % | 21.6 |
